From: patent US9687539B2

target: HLA-DR1 (DRB1*0101) (Homo sapiens, UniProt P01903+P01911, A100R/D57E/F55L/F60I/F76Y/I96L/L162R/M171V/P40L/Q125E/R42F/V115G/Y59C); test: Competitive HLA II/peptide binding assay, HLA-DR1; conditions: competition with biotinylated tracer; 3 independent experiments
No end group written: not given here.
Please provide measured IC50 for the entries that follow.
Report only the number, with the unit nM understood.

Req: Kindly indicate its recorded IC50. Item: AKKVRRAIEQLAAMD [peptide 128-142, A K K V R R A I E Q L A A M D]
Resp: 8

Req: Kindly indicate its recorded IC50. Item: LTLGEFLKLDRERAK [peptide 96-110, L T L G E F L K L D R E R A K]
Resp: 18

Req: Kindly indicate its recorded IC50. Item: KKQFEELTLGEFLKL [peptide 90-104, K K Q F E E L T L G E F L K L]
Resp: 40

----------
molecular target: HLA-DR15 (DRB1*1501) (Homo sapiens, UniProt P01903+P01911); assay: Competitive HLA II/peptide binding assay, HLA-DR15; conditions: competition with biotinylated tracer; 3 independent experiments
No end group written: not given here.
MEASURED METRIC: IC50

Req: Kindly indicate its recorded IC50. Item: KELEGWEPDDDPIEE [62-76, K E L E G W E P D D D P I E E]
Resp: 65 µM

Req: Kindly indicate its recorded IC50. Item: EGWEPDDDPIEEHKK [65-79, E G W E P D D D P I E E H K K]
Resp: > 100 µM

Req: Kindly indicate its recorded IC50. Item: FCFKELEGWEPDDDP [59-73, F C F K E L E G W E P D D D P]
Resp: 8 µM

Req: Kindly indicate its recorded IC50. Item: LKLDRERAKNKIAKE [102-116, L K L D R E R A K N K I A K E]
Resp: > 100 µM

----------
Please provide measured pIC50 for the entries that follow.
target: HLA-DRB3 (DRB3*0101) (Homo sapiens, UniProt P01903+P79483); experiment: Competitive HLA II/peptide binding assay, HLA-DRB3; conditions: competition with biotinylated tracer; 3 independent experiments
pIC50: −log10 of the molar value. No end group written: not given here.

Req: Kindly indicate its recorded pIC50. Item: MGAPTLPPAWQPFLK [1-15, M G A P T L P P A W Q P F L K]
Resp: < 4.00

Req: Kindly indicate its recorded pIC50. Item: KEFEETAKKVRRAIE [122-136, K E F E E T A K K V R R A I E]
Resp: < 4.00

Req: Kindly indicate its recorded pIC50. Item: LTLGEFLKLDRERAK [peptide 96-110, L T L G E F L K L D R E R A K]
Resp: < 4.00

Req: Kindly indicate its recorded pIC50. Item: FCFKELEGWEPDDDP [59-73, F C F K E L E G W E P D D D P]
Resp: < 4.00

Req: Kindly indicate its recorded pIC50. Item: ERMAEAGFIHCPTEN [36-50, E R M A E A G F I H C P T E N]
Resp: < 4.00

Req: Kindly indicate its recorded pIC50. Item: GEFLKLDRERAKNKI [99-113, G E F L K L D R E R A K N K I]
Resp: < 4.00

Req: Kindly indicate its recorded pIC50. Item: HRISTFKNWPFLEGC [peptide 17-31, H R I S T F K N W P F L E G C]
Resp: < 4.00

Req: Kindly indicate its recorded pIC50. Item: KELEGWEPDDDPIEE [62-76, K E L E G W E P D D D P I E E]
Resp: 4.54

Req: Kindly indicate its recorded pIC50. Item: AKKVRRAIEQLAAMD [peptide 128-142, A K K V R R A I E Q L A A M D]
Resp: < 4.00

Req: Kindly indicate its recorded pIC50. Item: CAFLSVKKQFEELTL [peptide 84-98, C A F L S V K K Q F E E L T L]
Resp: 4.93

Req: Kindly indicate its recorded pIC50. Item: LKLDRERAKNKIAKE [102-116, L K L D R E R A K N K I A K E]
Resp: < 4.00

Req: Kindly indicate its recorded pIC50. Item: EGWEPDDDPIEEHKK [65-79, E G W E P D D D P I E E H K K]
Resp: < 4.00

Req: Kindly indicate its recorded pIC50. Item: DPIEEHKKHSSGCAF [72-86, D P I E E H K K H S S G C A F]
Resp: < 4.00

Req: Kindly indicate its recorded pIC50. Item: KQFEELTLGEFLKLD [91-105, K Q F E E L T L G E F L K L D]
Resp: 4.52
